Target: T1, PPIA, full length (residues 1-165) (human, UniProt P62937 1-165)
T1 construct: also called Cyclophilin A; peptidyl-prolyl cis-trans isomerase A
T1 sequence (P62937 whole entry, the tested form may be a part): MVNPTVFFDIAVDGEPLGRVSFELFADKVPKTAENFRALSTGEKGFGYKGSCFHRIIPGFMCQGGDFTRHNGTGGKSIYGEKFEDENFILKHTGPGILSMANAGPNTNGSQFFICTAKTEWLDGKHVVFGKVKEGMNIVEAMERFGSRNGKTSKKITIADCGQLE
Test: SPR, affinity fit
Bridge positions count the residues as written; N and C are the ends.
Value type: Kd (µM)

I = Ac-DPANQDCHVAAWHCWQR-NH2 (bridge 7-14; not fully specified (bridges), Cluster C53) [FP29092]
II = Ac-PDCHIRAYVCH-NH2 (bridge 3-10; not fully specified (bridges), Cluster C54) [FP29103]
Inquiry: Hi team, can someone confirm which has the larger Kd: I or II ? Thanks. // return label of chosen record
Reply text: II
(II: 10 µM, I: 3 µM)
